tested on: HeLa MKYP cells; assay: Cell death measured by DAPI staining, with 1 μM FCCP/oligomycin or no toxin (no FO); format: cell-based; conditions: with 1 μM FO
property label: Max % death with 1 μM FO (%)
Numbers only, in %.

Could I get Max % death with 1 μM FO for every one of these entries?
1. FC(F)(F)c1cc2c(N[C@@H]3c4ccccc4CC[C@H]3N3CCOCC3)ncnc2[nH]1 (racemic)
2. C[C@@H]1CN([C@@H]2COc3cc(F)ccc3[C@H]2Nc2ncnc3[nH]c(C4CC4)cc23)C[C@H](C)O1
3. FC(F)(F)c1cc2c(N[C@H]3c4ccccc4OC[C@@H]3N3CCOCC3)ncnc2[nH]1 (single isomer, unassigned) [EP-0040251]
4. Fc1ccc2c(c1)OC[C@H](N1C[C@@H]3COC[C@H]3C1)[C@H]2Nc1ncnc2[nH]c(C3CC3)cc12 (single isomer, unassigned) [EP-0040874]
5. c1ccc2c(c1)OC[C@H](N1CCOCC1)[C@H]2Nc1ncnc2[nH]c(C3CC3)cc12 [EP-0040080]

Solution:
1. 68.5
2. 21.1
3. 3.1
4. 14.4
5. 13.9

// each listed compound needs a value for Max % death with 1 μM FO
1. C[C@@H]1CN([C@@H]2CCc3ccccc3[C@H]2Nc2ncnc3[nH]c(C(F)(F)F)cc23)CCO1 (single isomer, unassigned)
2. C[S@](=N)(=O)C1CN([C@H]2COc3ccccc3[C@@H]2Nc2ncnc3[nH]c(C(F)(F)F)cc23)C1 (single isomer, unassigned) [EP-0041497]

Solution:
1: 1.8; 2: 2.6

Take each entry in turn and give its Max % death with 1 μM FO.
1. C[C@H]1CN([C@@H]2COc3ccccc3[C@H]2Nc2ncnc3[nH]c(C(F)(F)F)cc23)CCO1
2. COC[C@@H]1CCCN1[C@H]1COc2ccccc2[C@@H]1Nc1ncnc2[nH]c(C(F)(F)F)cc12 (single isomer, unassigned)

Solution:
1. 14.7
2. 3.7

The measurements presented in this section are drawn from patent US20240018146A1.
